system: P. falciparum NF54; test: In vitro 3H-hypoxanthine incorporation assay, erythrocytic stages, NF54 strain; type: cell-based, Plasmodium falciparum; details: Plasmodium falciparum, NF54, chloroquine-sensitive strain; average of four determinations; read-out: P.f. NF54 IC50
pIC50: −log10 of the molar value.
label 1 means recorded pIC50 is 7 or above; label 0 means it is below 7.

>>> class_assignment("CCOc1ccc(-c2nonc2NC(=O)c2cccc(F)c2)cc1OCC")
"label 1"
>>> class_assignment("CCOc1ccc(-c2nonc2NC(=O)CCN2CCOCC2)cc1OCC")
"label 0"
>>> class_assignment("Cc1cccc(C(=O)Nc2nonc2-c2ccccc2)c1")
"label 0"
>>> class_assignment("CCOc1ccc(-c2nonc2NC(=O)CN2CCCC2)cc1OCC")
"label 0"
>>> class_assignment("CCOc1ccc(-c2nonc2NC(=O)c2cccc(C)c2)cc1OCC")
"label 1"
>>> class_assignment("CCOc1ccc(-c2nonc2NC(=O)c2cccc(C(F)(F)F)c2)cc1OCC")
"label 1"
>>> class_assignment("CCOc1ccc(-c2nonc2NC(=O)CN2CCOCC2)cc1OCC")
"label 0"
>>> class_assignment("CCOc1ccc(-c2nonc2NC(=O)CCN2CCCC2)cc1OCC")
"label 0"
>>> class_assignment("CCOc1ccc(-c2nonc2NC(=O)c2cccc(CN3CCOCC3)c2)cc1OCC")
"label 0"
>>> class_assignment("CCOc1ccc(-c2nonc2NC(=O)c2cccc(CN3CCCC3)c2)cc1OCC")
"label 0"

###

Some compounds, each annotated with its measured melting point.
assay-readout: melting point

>>> observed("CCOc1ccc(-c2nonc2NC(=O)c2ccc(CN3CCCC3)cc2)cc1OCC")
"251 °C (dec.)"
>>> observed("CCOc1ccc(-c2nonc2NC(=O)c2ccc(CN3CCOCC3)cc2)cc1OCC")
"269 °C (dec.)"
>>> observed("CCOc1ccc(-c2nonc2NC(=O)c2ccc(OC)c(Cl)c2)cc1OCC")
"260 °C (dec.)"
>>> observed("CCOc1ccc(-c2nonc2NC(=O)c2ccc(OC)c(F)c2)cc1OCC")
"232 °C (dec.)"

###

test: Parallel artificial membrane permeability assay (PAMPA); assay type: in vitro ADME; settings: pH 7.4, PAMPA, pH 7.4, 200 µM in PBS, room temperature, read-out: Pe (effective permeability)
Some compounds, each annotated with its measured Papp at 5 h, 200 µM.
assay-readout: Papp at 5 h, 200 µM (×10⁻⁶ cm/s)

>>> observed("Cc1cccc(C(=O)Nc2nonc2-c2ccccc2)c1")
8.47
>>> observed("CCOc1ccc(-c2nonc2NC(=O)c2cccc(CN3CCCC3)c2)cc1OCC")
7.26
>>> observed("CCOc1ccc(-c2nonc2NC(=O)c2cccc(C(F)(F)F)c2)cc1OCC")
4.26
>>> observed("CCOc1ccc(-c2nonc2NC(=O)c2ccc(CN3CCCC3)cc2)cc1OCC")
8.13

###

Some compounds, each annotated with its measured IC50.
test system: P. falciparum NF54; assay: In vitro 3H-hypoxanthine incorporation assay, erythrocytic stages, NF54 strain; assay type: cell-based, Plasmodium falciparum; conditions: Plasmodium falciparum, NF54, chloroquine-sensitive strain; average of four determinations; read-out: P.f. NF54 IC50
assay-readout: IC50 (nM)

>>> observed("CCOc1ccc(-c2nonc2NC(=O)c2ccccc2)cc1OCC")
76
>>> observed("CCOc1ccc(-c2nonc2NC(=O)c2cccc(OC(F)(F)F)c2)cc1OCC")
98

###

system: P. falciparum NF54; experiment: In vitro 3H-hypoxanthine incorporation assay, erythrocytic stages, NF54 strain; format: cell-based, Plasmodium falciparum; details: Plasmodium falciparum, NF54, chloroquine-sensitive strain; average of four determinations; read-out: P.f. NF54 IC50
assay-readout: IC50

>>> observed("CCOc1ccc(-c2nonc2NC(=O)c2ccc(OC)c(Cl)c2)cc1OCC")
"0.014 to 0.167 µM"
>>> observed("CCOc1ccc(-c2nonc2NC(=O)c2ccccc2C)cc1OCC")
"0.343 to 0.831 µM"
>>> observed("CCOc1ccc(-c2nonc2NC(=O)c2ccc(CN3CCOCC3)cc2)cc1OCC")
"0.674 to 4.05 µM"
